- System: MDA-MB-231
- assay remarks: NCI tumour cell line growth inhibition, 48 h
The source made the active and inactive calls. Rule as the data show it: active = GI50 up to about 1.1 µM and inactive = higher.
outcome measure: GI50

compound	GI50
O=C(c1cc(Cl)cc(Cl)c1)N1CCN(C(=O)c2cc(Cl)cc(Cl)c2)C1=S	15.7 µM (inactive)
O=C1NC(N2CCCC(CO)C2)=N/C1=C\c1ccc(O)cc1 (centres undefined)	> 100 µM (inactive)
COc1ccc(/C=c2/s/c(=C(\C#N)c3nc4ccccc4[nH]3)n(-c3ccccc3)c2=O)cc1	18.7 µM (inactive)

Data request: May I ask what GI50 has been recorded for BC(=O)NC(CC(C)C)C(=O)NC1c2ccsc2C(=O)C1O.CN(C)C (centres undefined) ?
Data returned: > 100 µM (inactive)

Data request: May I ask what GI50 has been recorded for `O=C(CN1CCN(c2ccccc2)CC1)c1ccc2[nH]c(=O)oc2c1` ?
Data returned: 83.4 µM (inactive)

Data request: May I ask what GI50 has been recorded for `CCCCCCOP(=O)(OCCCCCC)C(NC(=O)OCC)(C(F)(F)F)C(F)(F)F` ?
Data returned: 24.3 µM (inactive)

Data request: May I ask what GI50 has been recorded for `O=C(NCc1ccccc1Cl)c1c(O)c2ccccc2[nH]c1=O` ?
Data returned: 18.6 µM (inactive)

Data request: May I ask what GI50 has been recorded for CCC1CCC2c3c([nH]c4ccccc34)C3C(=O)N(c4ccc(OC)cc4)C(=O)C3C2C1 (centres undefined) ?
Data returned: 49.7 µM (inactive)

Data request: May I ask what GI50 has been recorded for C[As](C)SCC(NC(=O)CCC(N)C(=O)O)C(=O)NCC(=O)O.c1ccncc1 (centres undefined) ?
Data returned: 0.261 µM (active)

Data request: May I ask what GI50 has been recorded for CC1=C(c2ccc(C)cc2)NC(=S)C(C)C(c2ccc(C)cc2)=N1 (centres undefined) ?
Data returned: > 100 µM (inactive)

Data request: May I ask what GI50 has been recorded for NC(=O)c1[nH]nc(C2OC(CO)C(O)C2O)c1O (centres undefined) ?
Data returned: 8.59 µM (inactive)

Data request: May I ask what GI50 has been recorded for `CC/C=C/C[C@H](O[Si](C)(C)C(C)(C)C)[C@H]1C[C@H]2O[C@H]([C@@H](O)C#C[Si](C)(C)C)C[C@H]2O1` ?
Data returned: 14.9 µM (inactive)

Data request: May I ask what GI50 has been recorded for `O=C1NC(=S)N/C1=C\c1cccs1` ?
Data returned: > 100 µM (inactive)

---

Each entry below carries its reported GI50.
- Tested on: NCI-H226
- assay remarks: NCI tumour cell line growth inhibition, 48 h
Activity calls are given as the source filed them. Cut-off read from the data, not from the text of the source: active = GI50 up to about 1.1 µM and inactive = higher.

Guide cases for GI50, answers given:
compound	GI50
Oc1ccc2ccccc2c1OCc1nnc(CCCCCCCCc2nnc(COc3c(O)ccc4ccccc34)o2)o1	> 100 µM (inactive)
COc1ccc(NC(=O)CC(=O)N/N=C/c2ccc(N(CCC#N)S(C)(=O)=O)cc2)cc1	> 100 µM (inactive)
Oc1cc(Cl)cc2cc(Br)cnc12	22.6 µM (inactive)

Below: the item to evaluate.
Data request: May I ask what GI50 has been recorded for Cc1ccc(C2[C@H]3C(=O)N(c4ccc(Cc5ccc(N6C(=O)[C@@H]7ON(c8ccccc8)C(c8ccc(C)cc8)[C@@H]7C6=O)cc5)cc4)C(=O)[C@H]3ON2c2ccccc2)cc1 (some centres undefined) ?
Data returned: > 100 µM (inactive)
